Experiment: chemical genetic growth profiling, strain panel (AID 1159580);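 also: tested at 20 µM; growth read once vehicle control cultures reached saturation at 30 °C; 1 = growth at the plate median or of vehicle wells; lower values mean less growth of the strain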
Conditions: S. cerevisiae deletion strains, growth OD, locus YDR297W, strain sur2, hits give low values
In all, about 5,500 compounds went through this assay and about 2,000 (36%) were called active. Roughly 18% stayed inconclusive and do not appear here. This is one part of the list.
endpoint name: normalized growth
// no unit, no text: just the number

Query block: Item `Cc1cc(=O)c2c(O)c(C)c(O)cc2o1` : provide normalized growth
Result block: 1.01

Query block: Item `COc1ccc2c(c1)OC[C@@H](Cc1ccc(OC)c(OC)c1)[C@H]2O` : provide normalized growth
Result block: 1

Query block: Item `COc1cc(OC)c2c(c1)O[C@H](c1ccc(OC)c(OC)c1)[C@@H](O)C2` : provide normalized growth
Result block: 0.988

Query block: Item `C=CCc1ccc2c(c1)OCO2` : provide normalized growth
Result block: 1.01

Query block: Item `COc1ccc([C@@H]2CC(=O)c3c(O)cc(O)cc3O2)cc1O` : provide normalized growth
Result block: 0.976

###

Assay: chemical genetic growth profiling, strain panel (AID 1159580)
Details: S. cerevisiae deletion strains, growth OD, locus YKL068W, hits give low values
Hit rate of the full screen: of about 5,500 compounds, about 2,000 (36%) were called active. Roughly 18% stayed inconclusive and do not appear here. The list shows a part of the results.
// reported normalized growth for each item listed
// no unit, no text: just the number

molecule="CC(C(=O)O)c1ccc2c(c1)[nH]c1ccc(Cl)cc12 (configuration not stated)" endpoint_name="normalized growth" recorded_measurement=0.964

Query block: Item `CCCCOc1ccc(OCCCN2CCOCC2)cc1` : provide normalized growth
Result block: 0.998

Query block: Item `COc1ccc2cc1Oc1ccc(cc1)C[C@H]1c3cc(c(OC)cc3CCN1C)Oc1c(OC)c(OC)cc3c1[C@H](C2)N(C)CC3` : provide normalized growth
Result block: 1.01

###

Test: chemical genetic growth profiling, strain panel (AID 1159580)
Settings: S. cerevisiae deletion strains, growth OD, locus YAL013W, strain DEP1, hits give low values
The whole screen tested about 5,500 compounds, of which about 2,000 (36%) were called active. Inconclusive results (about 18%) are left out. The list shows a part of the results.
endpoint name: normalized growth
// no unit, no text: just the number

compound=COC(=O)COc1ccc(Cl)cc1Cl endpoint_name="normalized growth" recorded_measurement=1
compound=NCC1(CC(=O)O)CCCCC1 endpoint_name="normalized growth" recorded_measurement=1
compound=CNC(=S)NN=C(N)c1ccccn1 endpoint_name="normalized growth" recorded_measurement=1.02
compound=CN1C(=O)CN=C(c2ccccc2)c2ccccc21 endpoint_name="normalized growth" recorded_measurement=1.01
compound="CCC(C(=O)O)c1ccccc1 (stereo unspecified)" endpoint_name="normalized growth" recorded_measurement=1.01

Query block: Item `O=C1C[C@@H](c2ccc(O)cc2)Oc2cc(O)cc(O)c21` : provide normalized growth
Result block: 1.02

Query block: Item Nc1nc(Cl)nc2c1ncn2[C@@H]1O[C@H](CO)[C@H](O)C1O (stereo partly specified) : provide normalized growth
Result block: 1.01

Query block: Item `COc1ccc2cc1Oc1ccc(cc1)C[C@H]1c3cc(c(OC)cc3CCN1C)Oc1c(OC)c(OC)cc3c1[C@H](C2)N(C)CC3` : provide normalized growth
Result block: 1.01

Query block: Item `CCOC(=O)c1ncn2c1CN(C)C(=O)c1cc(F)ccc1-2` : provide normalized growth
Result block: 0.994

###

Test: chemical genetic growth profiling, strain panel (AID 1159580)
Conditions: S. cerevisiae deletion strains, growth OD, locus YHR030C, strain SLT2, hits give low values
About 2,000 (36%) of roughly 5,500 compounds were called active. Another 18% or so got no clear call; they are omitted. The list shows a part of the results.
// reported normalized growth for each item listed
// no unit, no text: just the number

compound=CCCCOc1cc(C(=O)O)ccc1OC endpoint_name="normalized growth" recorded_measurement=0.999
compound=Cc1cc(SCc2[nH]nc3oc(=O)cc(C)c23)c(Cl)cc1Cl endpoint_name="normalized growth" recorded_measurement=1.1
compound=O=C(Nc1c(Br)c(C2CC2)nn1-c1ccccc1)C(Cl)(Cl)Cl endpoint_name="normalized growth" recorded_measurement=0.896
compound=O=C(CCN1CCCCC1)c1ccc(-c2ccccc2)cc1 endpoint_name="normalized growth" recorded_measurement=0.567

Query block: Item CC(C)CC(NC(=O)CCN)C(=O)O (stereo unspecified) : provide normalized growth
Result block: 0.976

Query block: Item `O=C(O)/C=C/C=C/c1ccc2c(c1)OCO2` : provide normalized growth
Result block: 0.899

Query block: Item `CN1C/C(=C\c2ccccc2Cl)C(=O)/C(=C/c2ccccc2Cl)C1` : provide normalized growth
Result block: 0.27

Query block: Item `Cc1c(C(=O)N2CCCCC2)cc(-c2ccccc2)n1-c1ccccc1` : provide normalized growth
Result block: 0.676

Query block: Item COc1cccc2c1CCC1CC(=O)CCC21C (stereo unspecified) : provide normalized growth
Result block: 0.991

###

Assay: chemical genetic growth profiling, strain panel (AID 1159580)
Conditions: S. cerevisiae deletion strains, growth OD, locus YNL298W, strain CLA4, hits give low values
In all, about 5,500 compounds went through this assay and about 2,000 (36%) were called active. About 18% were inconclusive and are not listed. The list shows a part of the results.
endpoint name: normalized growth
// no unit, no text: just the number

# count of solved cases: 3
molecular_string=COc1ccc2c(c1)OC[C@@H](Cc1ccc(OC)c(OC)c1)[C@@H]2O recorded_measurement=0.992
molecular_string=CNc1ccccc1C(=O)N1CCc2c([nH]c3ccccc23)C1=O recorded_measurement=0.977
molecular_string=CC[C@@H](CO)NCCN[C@@H](CC)CO recorded_measurement=1.02

Let's switch to this compound now.
Query block: Item `COC(=O)[C@H]1[C@H]2C[C@H]3c4[nH]c5ccccc5c4CCN3C[C@H]2CC[C@@H]1O` : provide normalized growth
Result block: 0.988

###

Experiment: chemical genetic growth profiling, strain panel (AID 1159580);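 also: tested at 20 µM; growth read once vehicle control cultures reached saturation at 30 °C; 1 = growth at the plate median or of vehicle wells; lower values mean less growth of the strain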
Settings: S. cerevisiae deletion strains, growth OD, locus YIR030C, strain dcg1, hits give low values
Among all 5,500 compounds or so, about 2,000 (36%) were called active. Inconclusive results (about 18%) are left out. The list shows a part of the results.
API: label(entry) gives y if the entry's normalized growth is strictly smaller than 1; on equality or larger values it gives n.

Look over these answered cases.
molecular_string=Oc1c(Cl)c(Cl)c(Cl)c(Cl)c1Cl group_label=y
molecular_string=Oc1ccc(O)cc1 group_label=n

Please find the next compound below.
Query block: Consider `S=C=NCc1ccccc1` . Does its normalized growth lie strictly below 1?
Result block: y

###

Assay: chemical genetic growth profiling, strain panel (AID 1159580);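 also: tested at 20 µM; growth read once vehicle control cultures reached saturation at 30 °C; 1 = growth at the plate median or of vehicle wells; lower values mean less growth of the strain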
Conditions: S. cerevisiae deletion strains, growth OD, locus YGL078C, strain dbp3, hits give low values
The whole screen tested about 5,500 compounds, of which about 2,000 (36%) were called active. Roughly 18% stayed inconclusive and do not appear here. Some of the results follow.
endpoint name: normalized growth
// no unit, no text: just the number

# count of solved cases: 2
molecular_string=CCCCOc1ccc(C(=O)CCN2CCCCC2)cc1 recorded_measurement=0.928
molecular_string=OCc1ccccc1O[C@@H]1O[C@H](CO)[C@@H](O)[C@H](O)[C@H]1O recorded_measurement=0.988

Let's switch to this compound now.
Query block: Item `COc1ccc(-c2coc3c(OC)c(OC)cc(OC)c3c2=O)cc1` : provide normalized growth
Result block: 1

###

// reported normalized growth for each item listed
Experiment: chemical genetic growth profiling, strain panel (AID 1159580);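 also: tested at 20 µM; growth read once vehicle control cultures reached saturation at 30 °C; 1 = growth at the plate median or of vehicle wells; lower values mean less growth of the strain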
Conditions: S. cerevisiae deletion strains, growth OD, locus YOL012C, strain htz1
The whole screen tested about 5,500 compounds, of which about 2,000 (36%) were called active. Roughly 18% stayed inconclusive and do not appear here. The list shows a part of the results.

molecule=CC(C)[N+](C)(CCOC(=O)C1c2ccccc2Oc2ccccc21)C(C)C recorded_measurement="0.959 (inactive)"
molecule="C=C1CC[C@H](O)C/C1=C/C=C1\\CCC[C@]2(C)C([C@H](C)/C=C/[C@H](C)C(C)C)CC[C@@H]12 (some centres undefined)" recorded_measurement="1.45 (inactive)"
molecule="COc1cc(OC)c2c(c1)OC(c1ccccc1)CC2=O (centres undefined)" recorded_measurement="1.5 (inactive)"
molecule=COc1ccc(C(=O)c2ccccc2O)c(O)c1 recorded_measurement="1.21 (inactive)"
molecule="O=C(O)C1C(O)CCC2CN3CCc4c([nH]c5ccccc45)C3CC21 (centres undefined)" recorded_measurement="1.58 (inactive)"

Query block: Item `COC(=O)[C@H]1[C@H]2C[C@H]3c4[nH]c5ccccc5c4CCN3C[C@H]2CC[C@@H]1O` : provide normalized growth
Result block: 0.805 (inactive)

Query block: Item `COc1ccc(-c2coc3c(OC)c(O)ccc3c2=O)cc1` : provide normalized growth
Result block: 0.945 (inactive)

Query block: Item `O=C1C[C@@H](c2ccccc2)Oc2cc(O)cc(O)c21` : provide normalized growth
Result block: 0.987 (inactive)

Query block: Item `C[C@@H]1O[C@@H](O[C@H]2[C@@H](Oc3cc(O)c4c(c3)O[C@H](c3ccc(O)cc3)CC4=O)O[C@H](CO)[C@@H](O)[C@@H]2O)[C@H](O)[C@H](O)[C@H]1O` : provide normalized growth
Result block: 1.14 (inactive)

Query block: Item `O=C(O)c1cc(=O)c2ccc(Cl)cc2[nH]1` : provide normalized growth
Result block: 1.2 (inactive)

Query block: Item `C[N+](C)(C)CC(=O)[O-]` : provide normalized growth
Result block: 0.729 (inactive)

Query block: Item COc1ccc2c(c1)C1(C)CCC(=O)CC1CC2 (centres undefined) : provide normalized growth
Result block: 0.718 (inactive)

Query block: Item `COc1ccc2c(c1)OC[C@@H](Cc1ccc(OC)c(OC)c1)[C@H]2O` : provide normalized growth
Result block: 1.24 (inactive)

Query block: Item `S=C=NCc1ccccc1` : provide normalized growth
Result block: 0.273 (inactive)

Query block: Item `c1ccc(CC2=NCCN2)cc1` : provide normalized growth
Result block: 1.4 (inactive)

Query block: Item `c1ccc(CN(CC2=NCCN2)c2ccccc2)cc1` : provide normalized growth
Result block: 0.89 (inactive)
